Test system: RS4; 11 with G101V mutation
TEST DETAILS: In vitro anti-proliferation assay (ATPlite luminescence) in BCL-2-dependent ALL cell line RS4;11 with G101V mutation
Assay type: cell-based
TEST CONTEXT: Homo sapiens, RS4-11, 72 h; read-out: RS411-G101V IC50
Method: Cell antiproliferation was assayed by PerkinElmer ATPlite™ Luminescence Assay System. Briefly, the various test cancer cell lines were plated at a density of about 1×10^4 cells per well in Costar 96-well plates, and were incubated with different concentrations of compounds for about 72 hours in medium supplemented with 10% FBS. […] Finally, the luminescence was measured by a PerkinElmer TopCount® Microplate Scintillation Counter. […]
pIC50: −log10 of the molar value.
QUANTITY KIND: pIC50

(A) COc1cc(CN2CCN(C3CC4(CCN(c5ccc(C(=O)NS(=O)(=O)c6cc7c(c([N+](=O)[O-])c6)N[C@@H](C6CCOCC6)CO7)c(N6c7cc8cc[nH]c8nc7O[C@H]7COCC[C@@H]76)c5)CC4)C3)[C@H](c3ccccc3C)C2)cnc1N1CCOCC1
(B) CC(C)Oc1ccccc1[C@@H]1CN([C@H]2COc3c(F)cc(F)cc3C2)CCN1C1CC2(CCN(c3ccc(C(=O)NS(=O)(=O)c4cc5c(c([N+](=O)[O-])c4)N[C@H](C4CCOCC4)CO5)c(N4c5cc6cc[nH]c6nc5O[C@H]5COCC[C@@H]54)c3)CC2)C1
(C) Cc1ccccc1[C@@H]1CN([C@H]2CCCOC2)CCN1C1CC2(CCN(c3ccc(C(=O)NS(=O)(=O)c4cc5c(c([N+](=O)[O-])c4)N[C@H](C4CCOCC4)CO5)c(N4c5cc6cc[nH]c6nc5O[C@H]5COCC[C@@H]54)c3)CC2)C1
### Prompt With regard to pIC50, arrange the entries in ascending order, please. The response must list the labels following the requested ordering.
### Response B, C, A
(B: 6.89, C: 7.51, A: 8.10)

(a) COc1ccc(CN2CCN(C3CC4(CCN(c5ccc(C(=O)NS(=O)(=O)c6cc7c(c([N+](=O)[O-])c6)N[C@H](C6CCOCC6)CO7)c(N6c7cc8cc[nH]c8nc7O[C@H]7COCC[C@@H]76)c5)CC4)C3)[C@H](c3ccccc3OC(C)C)C2)cn1
(b) CC(C)Oc1ccccc1[C@@H]1CN([C@@H]2COCc3c(F)cc(F)cc32)CCN1C1CC2(CCN(c3ccc(C(=O)NS(=O)(=O)c4cc5c(c([N+](=O)[O-])c4)N[C@H](C4CCOCC4)CO5)c(N4c5cc6cc[nH]c6nc5O[C@H]5COCC[C@@H]54)c3)CC2)C1
(c) CC(C)Oc1ccccc1[C@@H]1CN([C@@H]2CCCOC2)CCN1C1CC2(CCN(c3ccc(C(=O)NS(=O)(=O)c4cc5c(c([N+](=O)[O-])c4)N[C@H](C4CCOCC4)CO5)c(N4c5cc6cc[nH]c6nc5O[C@H]5COCC[C@@H]54)c3)CC2)C1
(d) CC(C)Oc1ccccc1[C@@H]1CN(CC2CCOCC2)CCN1C1CC2(CCN(c3ccc(C(=O)NS(=O)(=O)c4cc5c(c([N+](=O)[O-])c4)N[C@H](C4CCOCC4)CO5)c(N4c5cc6cc[nH]c6nc5O[C@H]5COCC[C@@H]54)c3)CC2)C1
### Prompt // sort entries: pIC50, high to low Respond with the label ranking, as requested.
### Response a, d, c, b

From: patent US20250114374A1
